For each entry below, report its GFP response, % of DMSO value.
- test name: modulators of CIT2-GFP expression in yeast, confirmation, S. cerevisiae, GFP fusion, cherry picks, mother/daughter gates (AID 2274)
- test conditions: S. cerevisiae CIT2-GFP strain, flow cytometry, 3 h; at 10 µM; stronger effect = higher value
Dear colleague, please return just the value in %, with no unit written.

### Prompt Tell us which GFP response, % of DMSO value is on record for Cc1cc(NCCN2CCOCC2)n2ncc(-c3ccccc3)c2n1
### Response 103

### Prompt Tell us which GFP response, % of DMSO value is on record for COc1ccc(-c2cc3cc(C(=O)O)ccn3c2C(=O)c2ccccc2)cc1
### Response 98.3

### Prompt Tell us which GFP response, % of DMSO value is on record for Nc1cc(N)nc(SCC(=O)N2CCc3ccccc32)n1
### Response 101

----------
- test name: AGP1-GFP expression modulators, hit retest, confirmation, cell-based, flow cytometry, S. cerevisiae, cherry picks (AID 2273);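 further: median GFP channel fluorescence over the whole cell population gate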
- test conditions: S. cerevisiae AGP1-GFP strain, 3 h, at 10 µM
attribute measured: GFP response, % of DMSO (%)
Dear colleague, please return just the value in %, with no unit written.

### Prompt Tell us which GFP response, % of DMSO value is on record for Clc1ccc(C2=NNC(=NCc3ccccc3)SC2)cc1
### Response 93.9

### Prompt Tell us which GFP response, % of DMSO value is on record for Cc1cccc(Sc2ccc([N+](=O)[O-])cc2[N+](=O)[O-])n1
### Response 101

### Prompt Tell us which GFP response, % of DMSO value is on record for CCn1c(=O)c(C(=O)Nc2nc3ccccc3[nH]2)c(O)c2ccccc21
### Response 96.2

### Prompt Tell us which GFP response, % of DMSO value is on record for Cc1[nH]c2ccccc2c1C(c1ccccn1)N1CCC(C(N)=O)CC1 (centres undefined)
### Response 94.7

### Prompt Tell us which GFP response, % of DMSO value is on record for O=C(COC(=O)C1CCN(c2ccc(C(F)(F)F)cn2)CC1)Nc1cccc(F)c1
### Response 97.2

### Prompt Tell us which GFP response, % of DMSO value is on record for CC1CCCCN1S(=O)(=O)c1ccc(C(=O)Nc2nnc(-c3ccccc3Cl)o2)cc1 (centres undefined)
### Response 98.3

### Prompt Tell us which GFP response, % of DMSO value is on record for CCOc1ccc(N2C(=O)C(Cl)=C(Nc3ccccc3O)C2=O)cc1
### Response 96.7

### Prompt Tell us which GFP response, % of DMSO value is on record for C/C(=N\NC(=O)c1ccc(Cl)c(Cl)c1)c1ccccn1
### Response 127

### Prompt Tell us which GFP response, % of DMSO value is on record for Cc1ccc(-c2nnn(CC(=O)N(CC(=O)NC3CCCC3)c3ccc(F)cc3)n2)o1
### Response 104

----------
- test name: AGP1-GFP expression modulators, hit retest, confirmation, cell-based, flow cytometry, S. cerevisiae, cherry picks (AID 2273);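 further: median GFP channel fluorescence over the whole cell population gate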
- test conditions: S. cerevisiae AGP1-GFP strain, 3 h, at 10 µM
attribute measured: GFP response, % of DMSO (%)
Dear colleague, please return just the value in %, with no unit written.

### Prompt Tell us which GFP response, % of DMSO value is on record for Cc1ccc(C(=O)Oc2oc(-c3ccco3)nc2C=Nc2ccc(Cl)cc2)cc1
### Response 93.8

### Prompt Tell us which GFP response, % of DMSO value is on record for CCOC(=O)C(CC)Sc1ncnc2c1nnn2-c1ccc(F)cc1 (stereo not drawn)
### Response 94.8

### Prompt Tell us which GFP response, % of DMSO value is on record for CCCC(=O)Nc1ccc(NC(=O)c2cc3ccccc3o2)c(OC)c1
### Response 102

### Prompt Tell us which GFP response, % of DMSO value is on record for COc1ccc(C2N(c3ccc(Cl)cc3)N=C(C(C)=O)N(C)N2C(C)=O)cc1 (stereo not drawn)
### Response 101

### Prompt Tell us which GFP response, % of DMSO value is on record for CCN(CC)CCNC(=O)Cn1c(-c2ccccn2)nc2ccccc21
### Response 94.3

### Prompt Tell us which GFP response, % of DMSO value is on record for CC(C)C(=O)Nc1ccc(NC(=O)c2cc3ccccc3o2)cc1
### Response 99.1

### Prompt Tell us which GFP response, % of DMSO value is on record for Cc1nc2ccc(Br)cn2c1C(=O)N/N=C\c1ccccc1Cl
### Response 98

### Prompt Tell us which GFP response, % of DMSO value is on record for COc1ccccc1N1C(=O)c2cccc3c(C(=O)O)ccc(c23)C1=O
### Response 97.4

----------
- test name: LAP4-GFP expression modulators in yeast, confirmation, cell-based, cherry picks, flow cytometry, mother/daughter gates (AID 2271);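 further: ratio of sample to DMSO plate mean so 100% equals DMSO level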
- test conditions: S. cerevisiae LAP4-GFP strain, 3 h, measured here: mother cell gate response, at 10 µM, stronger effect = higher value, 100 means same as DMSO control
For each entry below, report its GFP response relative to DMSO value.
Dear colleague, please return just the value in %, with no unit written.

### Prompt Tell us which GFP response relative to DMSO value is on record for Cc1c(O)ccc(/C=N/Nc2nc(-c3cccnc3)nc3ccccc23)c1O
### Response 103

### Prompt Tell us which GFP response relative to DMSO value is on record for CC(=O)c1ccccc1NCC(=O)Nc1ccc(C)cc1
### Response 101

### Prompt Tell us which GFP response relative to DMSO value is on record for CCOc1cc(/C=C2\N=C(C)OC2=O)cc(Cl)c1OCC(=O)OC
### Response 125

### Prompt Tell us which GFP response relative to DMSO value is on record for Cc1cc(N2CCCCC2)n2ncc(-c3ccccc3)c2n1
### Response 102

### Prompt Tell us which GFP response relative to DMSO value is on record for Cc1ccc(C)c(Cn2ncc3ccccc32)c1
### Response 104

### Prompt Tell us which GFP response relative to DMSO value is on record for CCCC(=O)Nc1ccc(C(=O)/C=C/c2ccc(SC)cc2)cc1
### Response 105

----------
- test name: modulators of CIT2-GFP expression in yeast, confirmation, S. cerevisiae, GFP fusion, cherry picks, mother/daughter gates (AID 2274)
- test conditions: S. cerevisiae CIT2-GFP strain, flow cytometry, 3 h; at 10 µM; stronger effect = higher value
attribute measured: GFP response, % of DMSO (%)
Dear colleague, please return just the value in %, with no unit written.

### Prompt Tell us which GFP response, % of DMSO value is on record for COc1ccccc1OCC(=O)Sc1ccc(C)cc1
### Response 97.2

### Prompt Tell us which GFP response, % of DMSO value is on record for COCc1nnc(NC(=O)c2ccc(S(=O)(=O)N(C)C3CCCCC3)cc2)o1
### Response 103

### Prompt Tell us which GFP response, % of DMSO value is on record for COc1ccc(/C=C/C(=O)c2ccc(Cl)cc2)c(OC)c1
### Response 99.7

### Prompt Tell us which GFP response, % of DMSO value is on record for Cc1cc(C)nc(/N=c2/ssnc2Cl)c1
### Response 124

### Prompt Tell us which GFP response, % of DMSO value is on record for Cc1ccc(/C=C/C(=O)c2ccc(C)cc2)cc1
### Response 102

### Prompt Tell us which GFP response, % of DMSO value is on record for N#CC(C(=O)NCc1ccccc1)c1nc2ccccc2nc1N1CCCC1 (centres undefined)
### Response 111

### Prompt Tell us which GFP response, % of DMSO value is on record for COc1ccc(C2CC(=O)C(C(c3ccc(O)cc3)C3C(=O)CC(c4ccc(OC)cc4)CC3=O)C(=O)C2)cc1 (centres undefined)
### Response 110

### Prompt Tell us which GFP response, % of DMSO value is on record for CC[n+]1ccc(/C=C/c2c[nH]c3ccccc23)cc1
### Response 117

### Prompt Tell us which GFP response, % of DMSO value is on record for CCc1nnc(NC(=O)c2ccc(S(=O)(=O)N3CCCC(C)C3)cc2)o1 (centres undefined)
### Response 102

Source: PubChem BioAssay
